Assay: Tissue distribution in Swiss nu/nu SSCUP mice bearing Beu
Format: in vivo, human
Conditions: mouse, submaxillary glands, iv, 3 umol/animal; 24 h; read-out: submaxillary glands % ID/g
readout name: tissue uptake at 24 h (%ID/g)
Respond numerically; units are %ID/g and should not be typed.

Kindly indicate its recorded tissue uptake at 24 h. Item: CCN(CC)CCNC(=O)c1ccc(I)cc1 [Derivative A, N-(2-diethylaminoethyl) 4-iodo benzamide]
0.03

###

Experiment: Tissue distribution in Swiss nu/nu SSCUP mice bearing Beu
Assay type: in vivo, human
Settings: mouse, spleen, iv, 3 umol/animal; 8 h; read-out: spleen % ID/g
readout name: tissue uptake at 8 h
Note to self: number, then unit, no commentary.

Kindly indicate its recorded tissue uptake at 8 h. Item: CCN(CC)CCNC(=O)c1ccc(I)cc1 [Derivative A, N-(2-diethylaminoethyl) 4-iodo benzamide]
0.11 %ID/g

###

Assay: Tissue distribution in C57 BL6 mice bearing B16
Type: in vivo, mouse
Details: mouse, blood, iv, 3 umol/animal; 12 h; read-out: blood % ID/g
readout name: tissue uptake at 12 h (%ID/g)
Respond numerically; units are %ID/g and should not be typed.

Kindly indicate its recorded tissue uptake at 12 h. Item: CCN(CC)CCNC(=O)c1ccc(I)cc1 [Derivative A, N-(2-diethylaminoethyl) 4-iodo benzamide]
0.09

###

Experiment: Tissue distribution in Swiss nu/nu SSCUP mice bearing Dau
Type: in vivo, human
Conditions: mouse, intestine, iv, 3 umol/animal; 24 h; read-out: intestine % ID/g
readout name: tissue uptake at 24 h
Note to self: number, then unit, no commentary.

Kindly indicate its recorded tissue uptake at 24 h. Item: CCN(CC)CCNC(=O)c1ccc(I)cc1 [Derivative A, N-(2-diethylaminoethyl) 4-iodo benzamide]
0.01 %ID/g

Kindly indicate its recorded tissue uptake at 24 h. Item: CCNCCNC(=O)c1ccc(I)cc1 [Derivative B, N-(2-ethylaminoethyl) 4-iodo benzamide]
0.01 %ID/g

###

Assay: Tissue distribution in Swiss nu/nu SSCUP mice bearing Dau
Type: in vivo, human
Details: mouse, intestine, iv, 3 umol/animal; 6 h; read-out: intestine % ID/g
readout name: tissue uptake at 6 h (%ID/g)
Respond numerically; units are %ID/g and should not be typed.

Kindly indicate its recorded tissue uptake at 6 h. Item: CCNCCNC(=O)c1ccc(I)cc1 [Derivative B, N-(2-ethylaminoethyl) 4-iodo benzamide]
1.05

Kindly indicate its recorded tissue uptake at 6 h. Item: CCN(CC)CCNC(=O)c1ccc(I)cc1 [Derivative A, N-(2-diethylaminoethyl) 4-iodo benzamide]
0.42

###

Experiment: Tissue distribution in Swiss nu/nu SSCUP mice bearing Dau
Assay type: in vivo, human
Details: mouse, liver, iv, 3 umol/animal, 1 h; read-out: liver % ID/g
readout name: tissue uptake at 1 h

Kindly indicate its recorded tissue uptake at 1 h. Item: CCNCCNC(=O)c1ccc(I)cc1 [Derivative B, N-(2-ethylaminoethyl) 4-iodo benzamide]
4.95 %ID/g

Kindly indicate its recorded tissue uptake at 1 h. Item: CCN(CC)CCNC(=O)c1ccc(I)cc1 [Derivative A, N-(2-diethylaminoethyl) 4-iodo benzamide]
5.68 %ID/g

###

Test: Tissue distribution in C57 BL6 mice bearing B16
Type: in vivo, mouse
Conditions: mouse, stomach, iv, 3 umol/animal; 4 h; read-out: stomach % ID/g
readout name: tissue uptake at 4 h (%ID/g)
Respond numerically; units are %ID/g and should not be typed.

Kindly indicate its recorded tissue uptake at 4 h. Item: CCN(CC)CCNC(=O)c1ccc(I)cc1 [Derivative A, N-(2-diethylaminoethyl) 4-iodo benzamide]
2.35
